B1: Twister Ribozyme (parent)
chain: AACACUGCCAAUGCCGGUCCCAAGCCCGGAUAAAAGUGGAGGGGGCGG

- Variants of: B1
- EXPERIMENT_NOTES: self-cleavage, relative activity (ratio to wild type); higher = more cleavage; co-transcriptional
self-cleavage of 0.2 or higher: rule met. Under 0.2: rule not met.

INSERT INTO measurements (mutations, label) VALUES
  ('A1C C25G', 'rule not met'),
  ('C25G A30U', 'rule met'),
  ('A11C C25G', 'rule not met'),
  ('A2G G36C', 'rule not met'),
  ('A1C G38C', 'rule met'),
  ('G43U G45A', 'rule met'),
  ('G13A A34G', 'rule met'),
  ('A11C U37C', 'rule met'),
  ('C9A U18A', 'rule not met'),
  ('G28C U37G', 'rule not met'),
  ('U31C G45U', 'rule met'),
  ('C19G G42U', 'rule not met'),
  ('G13U A22C', 'rule met'),
  ('U31G A35C', 'rule met'),
  ('A4U G13A', 'rule not met'),
  ('G17C G44A', 'rule not met'),
  ('A35C G45U', 'rule met'),
  ('G29C A34U', 'rule met'),
  ('C26A C27A', 'rule not met'),
  ('A22G A33U', 'rule met'),
  ('C5A U37C', 'rule not met'),
  ('A2G C20G', 'rule not met');
